# experimental.target: Neuropeptide FF receptor 1 (Homo sapiens)
# Sequence (Q9GZQ6 whole entry): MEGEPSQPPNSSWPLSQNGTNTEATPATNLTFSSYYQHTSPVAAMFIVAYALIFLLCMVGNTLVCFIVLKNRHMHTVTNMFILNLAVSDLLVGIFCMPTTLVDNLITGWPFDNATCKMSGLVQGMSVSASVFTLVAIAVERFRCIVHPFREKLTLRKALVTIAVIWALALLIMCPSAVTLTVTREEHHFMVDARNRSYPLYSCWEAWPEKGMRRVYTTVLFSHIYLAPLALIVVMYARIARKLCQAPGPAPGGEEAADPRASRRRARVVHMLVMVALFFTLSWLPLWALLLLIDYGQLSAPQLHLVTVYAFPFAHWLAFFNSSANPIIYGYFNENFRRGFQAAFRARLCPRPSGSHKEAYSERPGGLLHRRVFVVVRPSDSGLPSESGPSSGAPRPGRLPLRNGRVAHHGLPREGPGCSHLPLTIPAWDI
# experiment.notes: Agonist activity at NPFFR1 (unknown origin) expressed in HEK293-A cells assessed as reduction in forskolin-induced cAMP accumulation incubated for 30 mins by competition PKA binding assay
# Type: functional, cell-based
# condition: read-out: EC50
Non-standard residues stand in square brackets, D forms with d. Residues, ends and D or L forms follow the SMILES beside them. NMeY = CN[C@@H](Cc1ccc(O)cc1)C(=O)O
test.readout: pEC50
Keep in mind that pEC50 stands for -log10 of concentration in molar terms.

Q. Quick one: pEC50 of C[C@@H](NC(=O)[C@@H](N)Cc1ccc(O)cc1)C(=O)NCC(=O)N[C@@H](Cc1ccccc1)C(=O)N[C@@H](CCC(N)=O)C(=O)N1CCC[C@H]1C(=O)N[C@@H](CCC(N)=O)C(=O)N[C@@H](CCCNC(=N)N)C(=O)N[C@@H](Cc1ccccc1)C(N)=O (H-Y[dA]GFQPQRF-NH2) ?
A. 6.23

Q. Again, but for C[C@@H](NC(=O)[C@@H](N)Cc1ccc(O)cc1)C(=O)NCC(=O)N[C@@H](Cc1ccccc1)C(=O)NCC(=O)N1CCC[C@H]1C(=O)N[C@@H](CCC(N)=O)C(=O)N[C@@H](CCCNC(=N)N)C(=O)N[C@@H](Cc1ccccc1)C(N)=O (H-Y[dA]GFGPQRF-NH2)
A. 6.06

Q. Param item: N=C(N)NCCC[C@H](NC(=O)[C@H](CCC(N)=O)NC(=O)[C@@H]1CCCN1C(=O)[C@H](CCC(N)=O)NC(=O)[C@H](Cc1ccccc1)NC(=O)CNC(=O)[C@@H](CO)NC(=O)[C@@H](N)Cc1ccc(O)cc1)C(=O)N[C@@H](Cc1ccccc1)C(N)=O
A. 5.50

Q. Next up: CSCC[C@@H](NC(=O)[C@@H](N)Cc1ccc(O)cc1)C(=O)NCC(=O)N[C@@H](Cc1ccccc1)C(=O)N[C@@H](CCC(N)=O)C(=O)N1CCC[C@H]1C(=O)N[C@@H](CCC(N)=O)C(=O)N[C@@H](CCCNC(=N)N)C(=O)N[C@@H](Cc1ccccc1)C(N)=O
A. 6.18

Q. Next entry: CN[C@@H](Cc1ccc(O)cc1)C(=O)N[C@H](C)C(=O)NCC(=O)N[C@@H](Cc1ccccc1)C(=O)N[C@@H](CCC(N)=O)C(=O)N1CCC[C@H]1C(=O)N[C@@H](CCC(N)=O)C(=O)N[C@@H](CCCNC(=N)N)C(=O)N[C@@H](Cc1ccccc1)C(N)=O (H-[NMeY][dA]GFQPQRF-NH2)
A. 6.03

***
Q. I have this compound here, CC(C)C[C@H](NC(=O)[C@H](Cc1ccccc1)NC(=O)CNC(=O)[C@@H](C)NC(=O)[C@@H](N)Cc1ccc(O)cc1)C(=O)N1CCC[C@H]1C(=O)N[C@@H](CCC(N)=O)C(=O)N[C@@H](CCCNC(=N)N)C(=O)N[C@@H](Cc1ccccc1)C(N)=O (H-Y[dA]GFLPQRF-NH2) , and I need its recorded pEC50.
A. 7.26

Q. Field entry: CSCC[C@H](NC(=O)[C@H](Cc1ccccc1)NC(=O)CNC(=O)[C@@H](C)NC(=O)[C@@H](N)Cc1ccc(O)cc1)C(=O)N1CCC[C@H]1C(=O)N[C@@H](CCC(N)=O)C(=O)N[C@@H](CCCNC(=N)N)C(=O)N[C@@H](Cc1ccccc1)C(N)=O (H-Y[dA]GFMPQRF-NH2)
A. 6.52

---

# experimental.target: Mu-type opioid receptor (Homo sapiens)
# Sequence (P35372 whole entry): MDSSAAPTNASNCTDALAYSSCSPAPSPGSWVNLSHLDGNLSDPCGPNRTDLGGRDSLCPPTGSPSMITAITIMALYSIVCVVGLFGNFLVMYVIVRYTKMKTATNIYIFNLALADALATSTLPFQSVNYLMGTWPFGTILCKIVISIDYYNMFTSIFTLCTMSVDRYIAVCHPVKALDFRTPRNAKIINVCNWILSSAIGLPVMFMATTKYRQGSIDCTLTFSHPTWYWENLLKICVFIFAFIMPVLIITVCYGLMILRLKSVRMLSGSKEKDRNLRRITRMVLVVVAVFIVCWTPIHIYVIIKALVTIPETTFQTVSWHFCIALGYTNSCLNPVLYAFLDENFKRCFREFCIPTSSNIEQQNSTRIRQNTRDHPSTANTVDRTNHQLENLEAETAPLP
# experiment.notes: Agonist activity at mu opioid receptor (unknown origin) expressed in HEK293-A cells assessed as reduction in forskolin-induced cAMP accumulation incubated for 30 mins by competition PKA binding assay relative to Tyr-D-Ala-Gly-Phe-Gln-Pro-Gln-Arg-Phe-NH2
# Assay type: functional, cell-based
# condition: filed as agonist
Non-standard residues stand in square brackets, D forms with d. Residues, ends and D or L forms follow the SMILES beside them. NMeF = CN[C@@H](Cc1ccccc1)C(=O)O
test.readout: Emax (%)
Quick note: give the figure in %, leave out the unit.

Q. What does the record list as Emax for CSCC[C@H](NC(=O)[C@H](Cc1ccccc1)NC(=O)CNC(=O)[C@@H](C)NC(=O)[C@@H](N)Cc1ccc(O)cc1)C(=O)N1CCC[C@H]1C(=O)N[C@@H](CCC(N)=O)C(=O)N[C@@H](CCCNC(=N)N)C(=O)N[C@@H](Cc1ccccc1)C(N)=O (H-Y[dA]GFMPQRF-NH2) ?
A. 89.2

Q. Same question for C[C@@H](NC(=O)[C@@H](N)Cc1ccc(O)cc1)C(=O)NCC(=O)N[C@@H](Cc1ccccc1)C(=O)N[C@H](C)C(=O)N1CCC[C@H]1C(=O)N[C@@H](CCC(N)=O)C(=O)N[C@@H](CCCNC(=N)N)C(=O)N[C@@H](Cc1ccccc1)C(N)=O (H-Y[dA]GF[dA]PQRF-NH2) please.
A. 85.6

Q. What do we get for C[C@@H](NC(=O)[C@@H](N)Cc1ccc(O)cc1)C(=O)NCC(=O)N[C@@H](Cc1ccccc1)C(=O)N[C@@H](CCC(N)=O)C(=O)N1CCC[C@H]1C(=O)N[C@@H](CCC(N)=O)C(=O)N[C@@H](CCCNC(=N)N)C(=O)N[C@@H](Cc1ccccc1)C(N)=O (H-Y[dA]GFQPQRF-NH2) ?
A. 92.4

Attention now turns to another entry.
Q. Please give the measured Emax for this compound: C[C@@H](NC(=O)[C@@H](N)Cc1ccc(O)cc1)C(=O)NCC(=O)N(C)[C@@H](Cc1ccccc1)C(=O)N[C@@H](CCC(N)=O)C(=O)N1CCC[C@H]1C(=O)N[C@@H](CCC(N)=O)C(=O)N[C@@H](CCCNC(=N)N)C(=O)N[C@@H](Cc1ccccc1)C(N)=O (H-Y[dA]G[NMeF]QPQRF-NH2)
A. 91.6

---

Below, each entry is listed with its recorded ED50.
# Tested on: Mus musculus
# experiment.notes: Antinociceptive activity in mouse dosed repeated icv injections for 6 days by radiant heat tail-flick test
# Type: functional
# condition: time 6 day
Non-standard residues stand in square brackets, D forms with d. Residues, ends and D or L forms follow the SMILES beside them. NMeY = CN[C@@H](Cc1ccc(O)cc1)C(=O)O; NMeF = CN[C@@H](Cc1ccccc1)C(=O)O
Reply numerically in nmol, unit not repeated.

Worked examples follow.
Q. So what's the measured ED50 for this one? CN[C@@H](Cc1ccc(O)cc1)C(=O)N[C@H](C)C(=O)NCC(=O)N[C@@H](Cc1ccccc1)C(=O)N[C@@H](CCC(N)=O)C(=O)N1CCC[C@H]1C(=O)N[C@@H](CCC(N)=O)C(=O)N[C@@H](CCCNC(=N)N)C(=O)N[C@@H](Cc1ccccc1)C(N)=O (H-[NMeY][dA]GFQPQRF-NH2)
A. 1.298

Q. Input C[C@@H](NC(=O)[C@@H](N)Cc1ccc(O)cc1)C(=O)NCC(=O)N(C)[C@@H](Cc1ccccc1)C(=O)NCC(=O)N1CCC[C@H]1C(=O)N[C@@H](CCC(N)=O)C(=O)N[C@@H](CCCNC(=N)N)C(=O)N[C@@H](Cc1ccccc1)C(N)=O (H-Y[dA]G[NMeF]GPQRF-NH2)
A. 0.0163

Q. Here is the next compound: CC(C)C[C@@H](NC(=O)[C@H](Cc1ccccc1)NC(=O)CNC(=O)[C@@H](C)NC(=O)[C@@H](N)Cc1ccc(O)cc1)C(=O)N1CCC[C@H]1C(=O)N[C@@H](CCC(N)=O)C(=O)N[C@@H](CCCNC(=N)N)C(=O)N[C@@H](Cc1ccccc1)C(N)=O (H-Y[dA]GF[dL]PQRF-NH2)
A. 0.4367

API: the following record is the query input.
Q. Item under review: C[C@@H](NC(=O)[C@@H](N)Cc1ccc(O)cc1)C(=O)NCC(=O)N[C@@H](Cc1ccccc1)C(=O)NCC(=O)N1CCC[C@H]1C(=O)N[C@@H](CCC(N)=O)C(=O)N[C@@H](CCCNC(=N)N)C(=O)N[C@@H](Cc1ccccc1)C(N)=O (H-Y[dA]GFGPQRF-NH2) . Reported ED50?
A. 0.4172

---

# experiment.notes: Half life in mouse brain membrane homogenate at 10 uM by HPLC analysis
# Assay type: ADME, cell membranes
Non-standard residues stand in square brackets, D forms with d. Residues, ends and D or L forms follow the SMILES beside them. NMeF = CN[C@@H](Cc1ccccc1)C(=O)O
test.readout: half-life at 10 µM (h)
Respond with the bare value in h.

Q. Which measured half-life at 10 µM value corresponds to C[C@@H](NC(=O)[C@@H](N)Cc1ccc(O)cc1)C(=O)NCC(=O)N(C)[C@@H](Cc1ccccc1)C(=O)NCC(=O)N1CCC[C@H]1C(=O)N[C@@H](CCC(N)=O)C(=O)N[C@@H](CCCNC(=N)N)C(=O)N[C@@H](Cc1ccccc1)C(N)=O (H-Y[dA]G[NMeF]GPQRF-NH2) ?
A. 1.44
